Test system: Pseudomonas aeruginosa ATCC 27853
test-summary: ATP Assay (viability at 3 hours), Table 6
Type: cell-based
run-conditions: 3 h, 5 μg/mL
No end group written: not given here.
hey, just use Met if measured Pseudomonas aeruginosa ATP (viability, relative value to negative control) is less than 1, otherwise Not met

{"columns": ["substance", "qualitative-label"],
 "data": [
  ["RLGERLKRKIQKLIRL-NH2 [SRP-31]", "Not met"],
  ["MGERLKRKIQKWIRW-NH2 [SRP-25]", "Not met"],
  ["RLKRLGERLKRKIQKLIRL-NH2 [SRP-28]", "Not met"],
  ["MLKLIFLHRLKRMRKRLKRKLR-NH2 [SRP-9]", "Met"],
  ["GRLKRMGERLKRKIQKWIRW-NH2 [SRP-15]", "Not met"],
  ["LKRLGERLKRKIQKLIRL-NH2 [SRP-29]", "Not met"],
  ["RLKRLGERLKRKIQKL-NH2 [SRP-36]", "Not met"],
  ["KLIFLHRLKRELRKRLKRKLR-NH2 [SRP-13]", "Not met"],
  ["MLKLIFLHRLKRMRKRLKRK-NH2 [SRP-10]", "Met"],
  ["Ac-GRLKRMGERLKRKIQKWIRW-NH2 [SRP-19]", "Not met"],
  ["Ac-KLIFLRELRRLRKRLKRKLR-NH2 [SRP-20]", "Not met"]
]}
